Reported peptide exchange yield by item:
biological target: T1, HLA-A*02:01 (human); assay: UV ligand-exchange ELISA (anti-b2m); +++ = exchange yield >=50
T1 construct: MHC monomers captured on streptavidin plates; the UV-sensitive peptide is cleaved and exchanged with the test peptide; also called peptide-receptive MHC molecules; MHC class I

Solved entries:
{"Binder": "LMQDSRLYL", "peptide exchange yield": "50 to 75%"}
{"Binder": "GLYPVTLVGV", "peptide exchange yield": "50 to 75%"}

Name the recorded peptide exchange yield of the item YLDPLWHQL in your answer.
50 to 75%
